EGFR (human), P00533 [WT]: reported IC50 for various compounds.
Sequence (P00533 whole entry, looked up): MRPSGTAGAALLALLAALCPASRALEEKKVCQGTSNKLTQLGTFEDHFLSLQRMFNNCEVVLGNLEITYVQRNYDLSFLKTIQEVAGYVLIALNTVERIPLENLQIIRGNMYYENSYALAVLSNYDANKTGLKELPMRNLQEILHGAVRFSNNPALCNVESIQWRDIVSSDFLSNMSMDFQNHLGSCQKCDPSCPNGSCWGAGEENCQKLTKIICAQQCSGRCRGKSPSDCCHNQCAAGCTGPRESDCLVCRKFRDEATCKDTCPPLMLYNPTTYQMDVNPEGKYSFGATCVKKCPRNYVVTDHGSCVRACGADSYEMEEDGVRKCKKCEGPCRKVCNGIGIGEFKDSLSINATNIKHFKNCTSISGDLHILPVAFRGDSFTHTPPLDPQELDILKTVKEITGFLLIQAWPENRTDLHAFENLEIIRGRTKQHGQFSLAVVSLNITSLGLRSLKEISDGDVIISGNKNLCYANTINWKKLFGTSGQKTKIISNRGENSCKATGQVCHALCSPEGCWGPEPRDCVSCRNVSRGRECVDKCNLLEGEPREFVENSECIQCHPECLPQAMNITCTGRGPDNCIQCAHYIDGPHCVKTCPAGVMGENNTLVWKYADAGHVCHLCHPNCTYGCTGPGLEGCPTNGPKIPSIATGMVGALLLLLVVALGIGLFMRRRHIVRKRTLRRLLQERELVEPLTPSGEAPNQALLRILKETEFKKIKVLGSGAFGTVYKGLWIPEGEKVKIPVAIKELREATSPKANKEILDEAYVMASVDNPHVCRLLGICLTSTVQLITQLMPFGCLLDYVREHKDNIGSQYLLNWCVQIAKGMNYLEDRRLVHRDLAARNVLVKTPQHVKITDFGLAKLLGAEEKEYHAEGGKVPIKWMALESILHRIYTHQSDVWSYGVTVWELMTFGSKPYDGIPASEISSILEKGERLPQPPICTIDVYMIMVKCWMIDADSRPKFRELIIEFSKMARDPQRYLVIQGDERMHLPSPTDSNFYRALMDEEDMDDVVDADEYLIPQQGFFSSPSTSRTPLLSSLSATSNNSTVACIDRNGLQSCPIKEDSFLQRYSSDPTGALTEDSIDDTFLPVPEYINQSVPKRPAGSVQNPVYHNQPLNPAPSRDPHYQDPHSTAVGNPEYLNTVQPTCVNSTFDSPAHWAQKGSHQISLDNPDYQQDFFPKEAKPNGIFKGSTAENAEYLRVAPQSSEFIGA

Check out these entries, answers already filled in.
Input: Name the recorded IC50 for "COc1cccc(COC[C@@H](Nc2ncnc3sc4c(c23)CCN(C(=O)/C=C/CN(C)C)C4)c2ccccc2)c1" .
Output: < 59 nM

Input: Okay, and "C=CC(=O)N1CCc2c(sc3ncnc(N[C@H](COCc4ccccc4)c4ccccc4)c23)C1" ?
Output: < 59 nM

Input: Okay, and "C/C=C/C(=O)N1CCc2c(sc3ncnc(N[C@H](COCc4cccc(F)c4)c4ccccc4)c23)C1" ?
Output: 60 to 100 nM

Next:
Input: Name the recorded IC50 for "CN(C)C/C=C/C(=O)N1CCc2c(sc3ncnc(N[C@H](CO[Si](C)(C)C(C)(C)C)c4ccccc4)c23)C1" .
Output: 60 to 100 nM

Input: Okay, and "C=CC(=O)N1CCc2c(sc3ncnc(N[C@H](COCc4ccc(C(F)(F)F)cc4)c4ccccc4)c23)C1" ?
Output: < 59 nM

Input: Okay, and "C=CC(=O)Nc1cccc(-c2c(-c3ccccc3)oc3ncnc(N[C@H](COC(=O)C=C)c4ccccc4)c23)c1" ?
Output: 101 to 900 nM

Input: Okay, and "O=C(O)[C@@H](Nc1ncnc2oc(-c3ccccc3)c(-c3ccccc3)c12)c1ccccc1" ?
Output: < 59 nM
